Assay: Oral bioavailability in mouse at 30 mg/kg
Type: ADME, organism-based
Details: in vivo
quantityMeasured: bioavailability (%)

>>> numericvalue("Cc1ncsc1-c1ccc([C@H](CC[C@H](C)CCN2CCC(c3ccc4c(c3)n(C3CCCC3)c3nc(=O)c5c(Br)cccc5n43)CC2)NC(=O)C2C[C@@H](O)CN2C(=O)[C@@H](NC(=O)C2(F)CC2)C(C)(C)C)cc1 (some centres not stated)")
22
>>> numericvalue("Cc1ncsc1-c1ccc([C@H](CCCCCN2CCC(c3ccc4c(c3)n(C3CCCC3)c3nc(=O)c5c(Br)cccc5n43)CC2)NC(=O)C2C[C@@H](O)CN2C(=O)[C@@H](NC(=O)C2(F)CC2)C(C)(C)C)cc1 (some centres not stated)")
3

====

Test: Tmax in C57BL/6 mouse at 30 mg/kg, po
Type: ADME, organism-based
Conditions: in vivo
quantityMeasured: Tmax

>>> result("CNc1nc(Nc2ccc(C(=O)N3CCN(C[C@H]4CC[C@H](CSC(C)(C)[C@H](NC(=O)C5(F)CC5)C(=O)N5C[C@H](O)C[C@@H]5C(=O)NCc5ccc(-c6scnc6C)cc5)CC4)CC3)cc2OC)ncc1Cl")
"2 h"

====

Assay: Cmax in C57BL/6 mouse at 30 mg/kg, ip
Type: ADME, organism-based
Design: dose 30 mg/kg, route ip
Settings: in vivo
quantityMeasured: Cmax (ng/mL)

>>> numericvalue("CNc1nc(Nc2ccc(C(=O)N3CCN(C[C@H]4CC[C@H](CSC(C)(C)[C@H](NC(=O)C5(F)CC5)C(=O)N5C[C@H](O)C[C@@H]5C(=O)NCc5ccc(-c6scnc6C)cc5)CC4)CC3)cc2OC)ncc1Cl")
7700

====

Assay: Oral bioavailability in C57BL/6 mouse at 30 mg/kg
Type: ADME, organism-based
Details: in vivo
quantityMeasured: bioavailability (%)

>>> numericvalue("CNc1nc(Nc2ccc(C(=O)N3CCN(C[C@H]4CC[C@H](CSC(C)(C)[C@H](NC(=O)C5(F)CC5)C(=O)N5C[C@H](O)C[C@@H]5C(=O)NCc5ccc(-c6scnc6C)cc5)CC4)CC3)cc2OC)ncc1Cl")
15

====

Assay: Tmax in C57BL/6 mouse at 30 mg/kg, ip
Type: ADME, organism-based
Settings: in vivo
quantityMeasured: Tmax (min)

>>> numericvalue("CNc1nc(Nc2ccc(C(=O)N3CCN(C[C@H]4CC[C@H](CSC(C)(C)[C@H](NC(=O)C5(F)CC5)C(=O)N5C[C@H](O)C[C@@H]5C(=O)NCc5ccc(-c6scnc6C)cc5)CC4)CC3)cc2OC)ncc1Cl")
15
